assayTarget: Dual specificity protein phosphatase 1 (Homo sapiens) (UniProt P28562)
Sequence (P28562 whole entry, the tested form may be a part): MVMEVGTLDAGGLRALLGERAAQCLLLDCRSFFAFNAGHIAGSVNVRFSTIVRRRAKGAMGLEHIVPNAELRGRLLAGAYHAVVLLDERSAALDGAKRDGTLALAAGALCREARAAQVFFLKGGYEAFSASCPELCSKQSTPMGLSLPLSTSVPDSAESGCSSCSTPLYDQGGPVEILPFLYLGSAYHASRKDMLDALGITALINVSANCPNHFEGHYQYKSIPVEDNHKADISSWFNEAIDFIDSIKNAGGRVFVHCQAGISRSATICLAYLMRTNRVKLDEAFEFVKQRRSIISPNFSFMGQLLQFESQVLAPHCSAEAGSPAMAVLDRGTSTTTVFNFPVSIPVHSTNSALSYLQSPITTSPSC
runDescription: Inhibition of His-tagged DUSP1 catalytic domain (152 to 323 residues) (unknown origin) using DiFMUP as substrate assessed as residual enzyme activity at 20 uM incubated for 30 mins by spectrofluorometric analysis relative to control
metricName: Activity (%)
A number alone suffices; assume %.

input: Give the reported Activity for this compound. Cc1ccc(C(=O)NC(=S)Nc2cccc(-c3nc4ccccc4o3)c2)cc1
output: 42

input: Give the reported Activity for this compound. Cc1ccc2oc(-c3cccc(NC(=S)NC(=O)c4ccc(C(C)(C)C)cc4)c3)nc2c1
output: 91

input: Give the reported Activity for this compound. Cc1ccc(C(=O)NC(=S)Nc2cccc(-c3nc4cc(C)ccc4o3)c2)cc1
output: 26

input: Give the reported Activity for this compound. Cc1ccc2oc(-c3cc(NC(=S)NC(=O)c4ccc(Br)cc4)ccc3Cl)nc2c1
output: 14

input: Give the reported Activity for this compound. Cc1ccc2oc(-c3cc(NC(=S)NC(=O)c4ccccc4)ccc3Cl)nc2c1
output: 34

input: Give the reported Activity for this compound. O=C(NC(=S)Nc1cccc(-c2nc3cc(Cl)ccc3o2)c1)c1ccccc1F
output: 41

input: Give the reported Activity for this compound. COc1ccc(C(=O)NC(=S)Nc2cccc(-c3nc4cc(C)ccc4o3)c2)cc1
output: 19

input: Give the reported Activity for this compound. Cc1ccc(C(=O)NC(=S)Nc2cccc(-c3nc4cc(Cl)ccc4o3)c2)cc1
output: 52
